Listed here are binders together with their documented % inhibition of BACE1 activity, short FRET substrate.
# study-system: murine BACE1 ECD; note: test concentration or dose not given here
# Sequence (single chain, as listed by the source limits assumed): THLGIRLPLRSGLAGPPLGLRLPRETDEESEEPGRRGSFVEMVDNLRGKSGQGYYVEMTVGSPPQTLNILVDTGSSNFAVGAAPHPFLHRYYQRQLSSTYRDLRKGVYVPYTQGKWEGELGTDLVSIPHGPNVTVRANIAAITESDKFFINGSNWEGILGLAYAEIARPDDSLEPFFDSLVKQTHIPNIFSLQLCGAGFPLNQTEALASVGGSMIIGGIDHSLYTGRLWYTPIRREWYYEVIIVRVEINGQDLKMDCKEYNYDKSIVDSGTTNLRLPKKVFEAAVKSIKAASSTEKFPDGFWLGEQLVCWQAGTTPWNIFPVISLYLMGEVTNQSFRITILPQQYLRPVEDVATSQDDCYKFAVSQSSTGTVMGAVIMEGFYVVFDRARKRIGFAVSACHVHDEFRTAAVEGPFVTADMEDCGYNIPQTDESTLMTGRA
# assay-overview: cell-based or functional assay
endpoint: % inhibition of BACE1 activity, short FRET substrate (%)

{"binder": "5875 (antibody, V domains shown, anti-BACE1 IgG) VH: EVQLLESGGGLVQPGGSLRLSCAASGFTFSTYAMGWVRQAPGKGLEWVSATSGSGGSTYYADSVKGRFTISRDNSKNTLYLQMNSLRAEDTAVYYCAKGGSQWLYAPGSWFDPWGQGTLVTVSS VL: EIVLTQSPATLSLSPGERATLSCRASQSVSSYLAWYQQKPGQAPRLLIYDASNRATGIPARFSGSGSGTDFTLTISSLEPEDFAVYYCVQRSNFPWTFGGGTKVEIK", "measure-unit": "%", "value": 39}
{"binder": "5896 (antibody, V domains shown, anti-BACE1 IgG) VH: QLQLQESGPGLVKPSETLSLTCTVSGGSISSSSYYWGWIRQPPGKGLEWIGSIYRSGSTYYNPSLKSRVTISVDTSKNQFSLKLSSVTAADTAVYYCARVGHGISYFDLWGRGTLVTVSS VL: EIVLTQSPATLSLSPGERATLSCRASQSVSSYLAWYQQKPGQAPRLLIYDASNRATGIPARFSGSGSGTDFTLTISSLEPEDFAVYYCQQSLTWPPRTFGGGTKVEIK", "measure-unit": "%", "value": -3}
{"binder": "5260 (antibody, V domains shown, anti-BACE1 IgG) VH: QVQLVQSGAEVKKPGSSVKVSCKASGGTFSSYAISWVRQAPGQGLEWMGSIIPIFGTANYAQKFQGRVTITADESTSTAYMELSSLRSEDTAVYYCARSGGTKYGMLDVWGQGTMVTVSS VL: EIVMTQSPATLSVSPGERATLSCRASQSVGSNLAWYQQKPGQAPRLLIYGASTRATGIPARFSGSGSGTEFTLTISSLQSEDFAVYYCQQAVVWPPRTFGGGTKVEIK", "measure-unit": "%", "value": -35}
